Entries and their Ki values follow.
measured-target: Sigma non-opioid intracellular receptor 1 (Homo sapiens, UniProt Q99720)
Sequence (Q99720 whole entry): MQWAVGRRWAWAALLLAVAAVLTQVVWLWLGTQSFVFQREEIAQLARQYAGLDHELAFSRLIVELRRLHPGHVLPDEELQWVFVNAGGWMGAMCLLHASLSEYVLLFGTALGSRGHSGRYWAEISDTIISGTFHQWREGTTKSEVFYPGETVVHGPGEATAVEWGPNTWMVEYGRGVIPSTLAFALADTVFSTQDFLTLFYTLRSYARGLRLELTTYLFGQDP
protocol-description: Displacement of [3H]-Pentazocine from human recombinant sigma1 receptor expressed in HEKT cells after 90 mins by microbeta scintillation counting method
Type: cell-based
condition-details: read-out: pKi (converted)

{"molecule": "C[C@@]12COc3c(Br)cccc3[C@@H]1CCN2 (racemic)", "inequality-symbol": "=", "Ki, nM": 501}
{"molecule": "Cc1cc(C)c2c(c1)OC[C@@]1(C)NCC[C@@H]21 (racemic)", "inequality-symbol": "=", "Ki, nM": 63.1}
{"molecule": "C[C@@]12CN(c3ccc(Br)cc3)c3ccc(Br)cc3[C@@H]1CCN2 (racemic)", "inequality-symbol": "=", "Ki, nM": 158}
{"molecule": "CN1CC[C@H]2c3ccc(O)cc3OC[C@]21C (racemic)", "inequality-symbol": "=", "Ki, nM": 50.1}
{"molecule": "CN1CC[C@H]2c3cccc(-c4ccccc4)c3OC[C@]21C (racemic)", "inequality-symbol": "=", "Ki, nM": 50.1}
{"molecule": "CC(=O)N1CC[C@H]2c3ccc(O)cc3OC[C@]21C (racemic)", "inequality-symbol": ">", "Ki, nM": 10000}
{"molecule": "CC[C@H]1c2c(ccc3ccccc23)OC[C@@]1(C)N (racemic)", "inequality-symbol": "=", "Ki, nM": 1000}
{"molecule": "CC[C@H]1c2cc(OC)ccc2OC[C@@]1(C)N (racemic)", "inequality-symbol": "=", "Ki, nM": 398}
{"molecule": "CN1CC[C@H]2c3ccccc3N(c3ccccc3)C[C@]21C (racemic)", "inequality-symbol": "=", "Ki, nM": 162}
{"molecule": "C[C@@]12COc3cc(OCc4ccccc4)ccc3[C@@H]1CCN2 (racemic)", "inequality-symbol": "=", "Ki, nM": 7.94}
